Recorded IC50 for the following compounds
# targetOrSystem: full length human TREX1 (Homo sapiens, UniProt Q9NSU2)
# Construct: N-terminally His-Tev tagged full length human TREX1; His-TEV (His tag with TEV site) (N)
# Sequence (Q9NSU2 whole entry): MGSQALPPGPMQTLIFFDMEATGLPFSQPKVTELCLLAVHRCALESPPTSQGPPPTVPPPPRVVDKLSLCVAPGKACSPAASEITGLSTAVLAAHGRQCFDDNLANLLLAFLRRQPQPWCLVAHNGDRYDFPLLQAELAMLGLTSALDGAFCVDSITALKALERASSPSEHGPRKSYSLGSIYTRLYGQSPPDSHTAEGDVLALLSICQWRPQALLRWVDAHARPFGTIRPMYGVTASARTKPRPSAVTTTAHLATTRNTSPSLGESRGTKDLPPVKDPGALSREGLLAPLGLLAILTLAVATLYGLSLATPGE
# protocol: TREX1 Biochemical Assay (fluorescence, dsDNA substrate degradation)
# measurementConditions: 150 pM TREX1, 60 nM dsDNA substrate, 25 minutes at room temperature
assayMetric: IC50

compound="Cc1ncc(C(c2ccccc2Cl)N(C)c2nc(C(=O)Nc3cnoc3)c(O)c(=O)n2C)cn1 (single isomer, unassigned) [Example 81]" targetorsystem="full length human TREX1 (Homo sapiens, UniProt Q9NSU2)" endpointresult="< 100 nM"
compound="CN(c1nc(C(=O)Nc2cnoc2)c(O)c(=O)n1C)C(c1ccccc1)c1cccc(C#N)c1 (single isomer, unassigned) [Example 51]" targetorsystem="full length human TREX1 (Homo sapiens, UniProt Q9NSU2)" endpointresult="< 100 nM"
compound="Cc1cc(C(c2ccccc2Cl)N(C)c2nc(C(=O)Nc3cnoc3)c(O)c(=O)n2C)ccn1 (single isomer, unassigned) [Example 90]" targetorsystem="full length human TREX1 (Homo sapiens, UniProt Q9NSU2)" endpointresult="< 100 nM"
compound=CN(Cc1ccccc1-c1cccc(Cl)c1)c1nc(C(=O)Nc2cnoc2)c(O)c(=O)n1C targetorsystem="full length human TREX1 (Homo sapiens, UniProt Q9NSU2)" endpointresult="< 100 nM"
compound=CN(Cc1ccccc1Cl)c1nc(C(=O)Nc2cnoc2)c(O)c(=O)n1C targetorsystem="full length human TREX1 (Homo sapiens, UniProt Q9NSU2)" endpointresult="< 100 nM"
compound=CN(Cc1ccncc1)c1nc(C(=O)Nc2cnoc2)c(O)c(=O)n1C targetorsystem="full length human TREX1 (Homo sapiens, UniProt Q9NSU2)" endpointresult="100 to 1000 nM"
compound="CC(c1c(Cl)cccc1Cl)N(C)c1nc(C(=O)Nc2cnoc2)c(O)c(=O)n1C (single isomer, unassigned) [Example 70]" targetorsystem="full length human TREX1 (Homo sapiens, UniProt Q9NSU2)" endpointresult="< 100 nM"
